# study target: RELA (p65) subunit of heterodimer;p50 subunit (Homo sapiens;Homo sapiens, UniProt Q04206;P19838 1-307;7-356)
# Sequence (Q04206 1-307, chain 1 of 2): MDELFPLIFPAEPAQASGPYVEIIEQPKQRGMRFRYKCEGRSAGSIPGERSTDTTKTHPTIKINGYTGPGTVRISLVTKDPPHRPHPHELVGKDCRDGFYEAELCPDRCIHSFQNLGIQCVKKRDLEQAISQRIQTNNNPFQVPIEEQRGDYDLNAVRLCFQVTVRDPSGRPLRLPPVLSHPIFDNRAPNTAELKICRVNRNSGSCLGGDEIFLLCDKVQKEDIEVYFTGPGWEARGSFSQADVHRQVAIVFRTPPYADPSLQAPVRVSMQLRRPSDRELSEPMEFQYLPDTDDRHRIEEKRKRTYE
# Sequence (P19838 7-356, chain 2 of 2): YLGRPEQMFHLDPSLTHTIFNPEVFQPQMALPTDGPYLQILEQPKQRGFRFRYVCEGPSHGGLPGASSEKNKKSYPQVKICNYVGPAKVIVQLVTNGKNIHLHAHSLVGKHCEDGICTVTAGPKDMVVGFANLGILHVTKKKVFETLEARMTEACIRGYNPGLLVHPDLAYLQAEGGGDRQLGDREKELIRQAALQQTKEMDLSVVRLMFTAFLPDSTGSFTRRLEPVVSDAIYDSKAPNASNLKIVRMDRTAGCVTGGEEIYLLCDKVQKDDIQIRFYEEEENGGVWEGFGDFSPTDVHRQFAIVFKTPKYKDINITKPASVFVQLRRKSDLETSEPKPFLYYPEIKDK
# assay procedure: protein binding microarray; high values mean tight binding
# measurement parameters: dsDNA, one strand shown
quantity kind: binding signal (z-score)
Numbers only, in z-score.

Here is how some sequences turned out for binding signal.
- sequence text: "CGGTTCATCCT"
  measurement: -0.88
- sequence text: "GGAAGTTTCCC"
  measurement: 1.47

Hey, quick one: what's binding signal for each of these?
1. AAGATGCCCCC
2. CAGGTTTCCCT

1. 0.893
2. 1.39

====

# study target: C-Rel subunit;p50 subunit (Homo sapiens;Homo sapiens, UniProt Q04864;P19838 1-285;7-356)
# Sequence (Q04864 1-285, chain 1 of 2): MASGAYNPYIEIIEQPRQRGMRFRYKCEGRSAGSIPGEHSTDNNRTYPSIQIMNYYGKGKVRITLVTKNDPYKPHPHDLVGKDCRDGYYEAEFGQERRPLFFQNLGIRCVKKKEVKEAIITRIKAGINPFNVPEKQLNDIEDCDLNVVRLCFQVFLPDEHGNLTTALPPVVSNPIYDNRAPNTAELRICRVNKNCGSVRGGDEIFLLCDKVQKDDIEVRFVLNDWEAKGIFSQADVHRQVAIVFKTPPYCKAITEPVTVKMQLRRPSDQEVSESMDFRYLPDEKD
# Sequence (P19838 7-356, chain 2 of 2): as the sequence (P19838 7-356, chain 2 of 2) above
# assay procedure: protein binding microarray; high values mean tight binding
# measurement parameters: dsDNA, one strand shown
Note to self: binding signal under -0.3 z-score means true (1), ties and anything higher get false (0).

Here are 5 sequences together with their reported answers.
- sequence text: "GGAGTCACCCT"
  category: "true (1)"
- sequence text: "GAATGATCCCC"
  category: "false (0)"
- sequence text: "GAAGATACCCT"
  category: "false (0)"
- sequence text: "AAATTTCCCCC"
  category: "false (0)"
- sequence text: "AAAGTCTCCCC"
  category: "false (0)"

Regarding "GAGGAGCTCCT" , kindly confirm whether its binding signal is beneath -0.3 z-score. true (1)

Regarding "AAGTGTTCCCC" , kindly confirm whether its binding signal is beneath -0.3 z-score. false (0)

====

# study target: C-Rel subunit;p50 subunit (Homo sapiens;Homo sapiens, UniProt Q04864;P19838 1-285;7-356)
# assay procedure: protein binding microarray; high values mean tight binding
# measurement parameters: dsDNA, one strand shown
Hi, to clarify the labels: yes (1) covers binding signal from -1 z-score upward, no (0) covers anything below -1 z-score.

- sequence text: "AGGTGCGTCCT"
  study target: "C-Rel subunit;p50 subunit (Homo sapiens;Homo sapiens, UniProt Q04864;P19838 1-285;7-356)"
  category: "no (0)"
- sequence text: "CGATTTCCCCT"
  study target: "C-Rel subunit;p50 subunit (Homo sapiens;Homo sapiens, UniProt Q04864;P19838 1-285;7-356)"
  category: "yes (1)"
- sequence text: "CGGGGGTCCCT"
  study target: "C-Rel subunit;p50 subunit (Homo sapiens;Homo sapiens, UniProt Q04864;P19838 1-285;7-356)"
  category: "yes (1)"
- sequence text: "CAAGAGTCCCC"
  study target: "C-Rel subunit;p50 subunit (Homo sapiens;Homo sapiens, UniProt Q04864;P19838 1-285;7-356)"
  category: "yes (1)"
- sequence text: "CGAGACGCCCC"
  study target: "C-Rel subunit;p50 subunit (Homo sapiens;Homo sapiens, UniProt Q04864;P19838 1-285;7-356)"
  category: "yes (1)"
- sequence text: "GAGGGATTCCT"
  study target: "C-Rel subunit;p50 subunit (Homo sapiens;Homo sapiens, UniProt Q04864;P19838 1-285;7-356)"
  category: "yes (1)"

Is it the case that "GAGGGCACCCT" has binding signal reaching or exceeding -1 z-score? no (0)

Is it the case that "AGAAACGTCCT" has binding signal reaching or exceeding -1 z-score? no (0)

Is it the case that "GAAGGAACCCT" has binding signal reaching or exceeding -1 z-score? no (0)

Is it the case that "AAAGTTGCCCC" has binding signal reaching or exceeding -1 z-score? yes (1)

====

Consider the following sequences; for each one, report its binding signal.
# study target: RELA (p65) subunit of heterodimer;p50 subunit (Homo sapiens;Homo sapiens, UniProt Q04206;P19838 1-307;7-356)
# assay procedure: protein binding microarray; high values mean tight binding
# measurement parameters: dsDNA, one strand shown
Number first, unit second.

- sequence text: "GAAGTTGTCCT"
  measurement: "-0.859 z-score"

Hey, quick one: what's binding signal for each of these?
1. CAAAGCGTCCT
2. CGGGGGTCCCT
3. AGGATAGCCCT

1. -0.956 z-score
2. 0.963 z-score
3. -0.78 z-score

Hey, quick one: what's binding signal for each of these?
1. CGGGTCCTCCC
2. AGGGTGGTCCC
3. GAGAGGGTCCC
4. CGGGATGCCCC
5. AAATTGCTCCT
6. CAGTTACCCCC
7. AAGGGCACCCC
8. CGGAATTTCCT

1. -0.451 z-score
2. 0.249 z-score
3. -0.312 z-score
4. 1.51 z-score
5. -0.644 z-score
6. 0.953 z-score
7. -0.454 z-score
8. 1.2 z-score

====

Consider the following sequences; for each one, report its binding signal.
# study target: C-Rel subunit;p50 subunit (Homo sapiens;Homo sapiens, UniProt Q04864;P19838 1-285;7-356)
# assay procedure: protein binding microarray; high values mean tight binding
# measurement parameters: dsDNA, one strand shown
Answers are plain numbers, in z-score.

Here is how some sequences turned out for binding signal.
- sequence text: "CGATGTCTCCT"
  study target: "C-Rel subunit;p50 subunit (Homo sapiens;Homo sapiens, UniProt Q04864;P19838 1-285;7-356)"
  value unit: "z-score"
  binding signal: -1.52
- sequence text: "GAGAGCGCCCT"
  study target: "C-Rel subunit;p50 subunit (Homo sapiens;Homo sapiens, UniProt Q04864;P19838 1-285;7-356)"
  value unit: "z-score"
  binding signal: -1.31
- sequence text: "GAAATGCTCCC"
  study target: "C-Rel subunit;p50 subunit (Homo sapiens;Homo sapiens, UniProt Q04864;P19838 1-285;7-356)"
  value unit: "z-score"
  binding signal: -0.726
- sequence text: "AAGTTTCCCCT"
  study target: "C-Rel subunit;p50 subunit (Homo sapiens;Homo sapiens, UniProt Q04864;P19838 1-285;7-356)"
  value unit: "z-score"
  binding signal: 2.01
- sequence text: "CAAGGATTCCC"
  study target: "C-Rel subunit;p50 subunit (Homo sapiens;Homo sapiens, UniProt Q04864;P19838 1-285;7-356)"
  value unit: "z-score"
  binding signal: 0.93

Hey, quick one: what's binding signal for each of these?
1. AAGTGATTCCT
2. CAGTAGGTCCC
3. AAAGTTACCCT
4. GGAGTTTTCCT
5. CGAGAGCCCCT

1. -0.572
2. -0.43
3. 0.279
4. 0.446
5. 0.0988

====

# study target: p52p52 homodimer (Homo sapiens, UniProt Q00653 4-332)
# Sequence: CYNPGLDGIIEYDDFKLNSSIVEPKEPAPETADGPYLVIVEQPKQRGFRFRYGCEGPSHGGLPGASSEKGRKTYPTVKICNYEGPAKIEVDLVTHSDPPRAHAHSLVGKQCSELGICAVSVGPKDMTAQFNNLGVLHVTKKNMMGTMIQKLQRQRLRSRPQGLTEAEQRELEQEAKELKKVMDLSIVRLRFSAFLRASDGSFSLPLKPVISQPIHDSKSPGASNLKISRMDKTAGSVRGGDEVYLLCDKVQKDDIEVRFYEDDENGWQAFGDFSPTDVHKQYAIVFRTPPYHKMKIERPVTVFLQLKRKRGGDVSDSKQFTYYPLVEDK
# assay procedure: protein binding microarray; high values mean tight binding
# measurement parameters: dsDNA, one strand shown
quantity kind: binding signal (z-score)
One number for each entry, in z-score.

Here is how some sequences turned out for binding signal.
- sequence text: "AAATTGGCCCC"
  value unit: "z-score"
  measurement: -0.144
- sequence text: "CGGGGTTCCCC"
  value unit: "z-score"
  measurement: 3.05
- sequence text: "CGGTAGTCCCC"
  value unit: "z-score"
  measurement: 1.51
- sequence text: "AAATGCCCCCC"
  value unit: "z-score"
  measurement: 0.957
- sequence text: "AGATAGTTCCC"
  value unit: "z-score"
  measurement: -0.177

Hey, quick one: what's binding signal for each of these?
1. AAAGGAACCCC
2. GGGAACCCCCC

[0.122, 3.03]

Hey, quick one: what's binding signal for each of these?
1. CGGATGGTCCC
2. CAGATAGCCCT
3. CAGTTACCCCC

1: -0.00887; 2: -0.544; 3: 0.638

Hey, quick one: what's binding signal for each of these?
1. CGATAGCTCCT
2. GGGTTGGTCCT
3. GAAAACCCCCT
4. GGATGGCTCCT
5. CAATACGCCCC

[-0.796, -0.471, 2.75, -0.721, 0.145]

Hey, quick one: what's binding signal for each of these?
1. AAGTACATCCC
2. CGGATAATCCT
3. AAAGATGTCCC
4. GGGTATATCCC
5. CGGTATGTCCT

1. -0.37
2. -0.659
3. 0.345
4. 2.43
5. -0.37
